- SYSTEM_UNDER_TEST: T1, BMPRII Fc fusion (R&D Systems) (UniProt Q13873 27-151, limits assumed)
- T1 construct: Bought receptor/Fc fusion; not shown: Fc part of the bought fusion
- T1 sequence (looked up): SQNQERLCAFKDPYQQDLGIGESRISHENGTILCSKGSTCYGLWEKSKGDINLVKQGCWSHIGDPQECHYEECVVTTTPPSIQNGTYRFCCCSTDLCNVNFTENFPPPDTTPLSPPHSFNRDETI
- PROTOCOL_DETAILS: AlphaScreen competition against biotinylated Y65N/S120D BMP-7
MEASURE: EC50 (µg/mL)
// note: answer is a bare numeric in µg/mL

Consider the worked cases shown below.
{"columns": ["BINDER", "EC50 (µg/mL)"],
 "data": [
  ["BMP-7 variant 526 (K39S/S120D/R134E) (ligand, Expressed from the full-length Image clone and processed to the mature dimer; Purified from conditioned media on SP-sepharose; also called v526) STGGKQRSQNRSKTPKNQEALRMASVAENSSSDQRQACSKHELYVSFRDLGWQDWIIAPEGYAAYYCEGECAFPLNSYMNATNHAIVQTLVHFINPETVPKPCCAPTQLNAISVLYFDDDSNVILKKYRNMVVEACGCH", 0.139],
  ["BMP-7 variant 565 (Y65N/F93T/R129D) (ligand, Expressed from the full-length Image clone and processed to the mature dimer; Purified from conditioned media on SP-sepharose; also called v565) STGGKQRSQNRSKTPKNQEALRMASVAENSSSDQRQACKKHELYVSFRDLGWQDWIIAPEGYAANYCEGECAFPLNSYMNATNHAIVQTLVHTINPETVPKPCCAPTQLNAISVLYFDDSSNVILKKYDNMVVRACGCH", 0.409],
  ["BMP-7 variant 504 (Y65N/S120D) (ligand, Expressed from the full-length Image clone and processed to the mature dimer; Purified from conditioned media on SP-sepharose; also called v504) STGGKQRSQNRSKTPKNQEALRMASVAENSSSDQRQACKKHELYVSFRDLGWQDWIIAPEGYAANYCEGECAFPLNSYMNATNHAIVQTLVHFINPETVPKPCCAPTQLNAISVLYFDDDSNVILKKYRNMVVRACGCH", 0.222]
]}

Now examine the next entry.
Inquiry: Sample wild type human BMP-7 (R&D Systems) (ligand, Bought recombinant protein; It describes BMPs as dimers; also called wt; recombinant human BMP-7) STGGKQRSQNRSKTPKNQEALRMASVAENSSSDQRQACKKHELYVSFRDLGWQDWIIAPEGYAAYYCEGECAFPLNSYMNATNHAIVQTLVHFINPETVPKPCCAPTQLNAISVLYFDDSSNVILKKYRNMVVRACGCH — what was its EC50?
Reply text: 0.23
